molecular target: TYK2 JH2 pseudokinase (Homo sapiens); assay: In vitro TYK2 JH2 enzyme binding assay (TR-FRET)
Sequence (P29597 589-875 limits assumed): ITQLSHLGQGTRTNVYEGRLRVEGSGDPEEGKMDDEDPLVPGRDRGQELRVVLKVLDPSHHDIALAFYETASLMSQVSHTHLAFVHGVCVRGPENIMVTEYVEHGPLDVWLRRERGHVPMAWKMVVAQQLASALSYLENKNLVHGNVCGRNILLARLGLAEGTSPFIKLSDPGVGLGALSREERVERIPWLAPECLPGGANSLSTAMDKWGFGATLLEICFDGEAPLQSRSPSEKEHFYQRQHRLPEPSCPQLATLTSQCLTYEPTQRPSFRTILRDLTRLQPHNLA
# maps each entry to its IC50
readoutKind: IC50 (nM)

INSERT INTO measurements (molsmiles, readoutvalue) VALUES
  ('CCONC(=O)c1nnc(NC(=O)C2CC2)cc1Nc1cccc(-c2ncn(CC(=O)O)n2)c1OC', 0.29),
  ('CCONC(=O)c1nnc(NC(=O)C2CC2)cc1Nc1cccc(-c2ncn(CCO)n2)c1OC', 0.28),
  ('CCONC(=O)c1nnc(NC(=O)C2CC2)cc1Nc1cccc(-c2nc[nH]n2)c1OC', 0.21),
  ('CCONC(=O)c1nnc(NC(=O)C2CC2)cc1Nc1cccc(-c2ncn(CCF)n2)c1OC', 0.18),
  ('CCONC(=O)c1nnc(NC(=O)C2CC2)cc1Nc1cccc(-c2ncn(CCC(=O)O)n2)c1OC', 0.29),
  ('CCONC(=O)c1nnc(NC(=O)C2CC2)cc1Nc1cccc(-c2ncn(CC(F)F)n2)c1OC', 0.26),
  ('CCONC(=O)c1nnc(NC(=O)C2CC2)cc1Nc1cccc(-c2ncn(CCCC(=O)O)n2)c1OC', 0.42),
  ('CCONC(=O)c1nnc(NC(=O)C2CC2)cc1Nc1cccc(-c2ncn(CCOC)n2)c1OC', 0.19);

###

molecular target: JAK1 JH1 (Homo sapiens, UniProt P23458); construct: 5 μL/well of 2×JAK1 JH1/JAK2 JH1/JAK3 JH1/TYK2 JH1 kinase solutions; test: JAK1 JH1 kinase inhibition (HTRF); assay type: biochemical; conditions: read-out: Inhibition on kinase activity (IC50, μM) JAKI JHI
Sequence (P23458 875-1153 limits assumed): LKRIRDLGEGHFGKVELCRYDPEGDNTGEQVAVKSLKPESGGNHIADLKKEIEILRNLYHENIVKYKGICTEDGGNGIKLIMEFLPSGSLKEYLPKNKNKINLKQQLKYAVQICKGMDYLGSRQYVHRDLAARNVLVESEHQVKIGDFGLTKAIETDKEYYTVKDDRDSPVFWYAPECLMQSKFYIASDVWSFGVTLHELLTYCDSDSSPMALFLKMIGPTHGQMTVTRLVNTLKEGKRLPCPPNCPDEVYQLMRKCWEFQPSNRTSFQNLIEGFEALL
Listed below: IC50 values for each entry.
readoutKind: IC50

INSERT INTO assay_data (molsmiles, readoutkind, readoutvalue) VALUES
  ('CCONC(=O)c1nnc(NC(=O)C2CC2)cc1Nc1cccc(-c2nc[nH]n2)c1OC', 'IC50', '> 10 µM'),
  ('CCONC(=O)c1nnc(NC(=O)C2CC2)cc1Nc1cccc(-c2ncn(CCOC)n2)c1OC', 'IC50', '> 10 µM');
